I'd appreciate it if you could supply IC50 values for the items below.
experimentalSystem: N-type Ca2+ channels in cultured superior cervical ganglion (SCG) neurons (Rattus norvegicus, UniProt Q02294)
assayName: Calcium current in superior cervical ganglion neurons (whole-cell voltage clamp)
testParameters: read-out: SCG Ca, IC50
Structures can show the parent of a compound that is named as a salt.

*Q* Provide only the value of recorded IC50 for CC(C)C[C@H](NCC1CCCCC1)C(=O)NCCCC(c1ccc(F)cc1)c1ccc(F)cc1 [Example 8, monohydrochloride]
*A* 2.4 µM

*Q* Provide only the value of recorded IC50 for CC(C)=CCN[C@@H](CC(C)C)C(=O)NCCCC(c1ccc(F)cc1)c1ccc(F)cc1 [Example 9, monohydrochloride]
*A* 53 µM

---

experimentalSystem: N-type calcium channels in IMR-32 cells (Homo sapiens, UniProt Q00975)
Construct: host or cells: IMR-32 cells differentiated with dibutyryl cAMP and bromodeoxyuridine
Sequence (Q00975 whole entry): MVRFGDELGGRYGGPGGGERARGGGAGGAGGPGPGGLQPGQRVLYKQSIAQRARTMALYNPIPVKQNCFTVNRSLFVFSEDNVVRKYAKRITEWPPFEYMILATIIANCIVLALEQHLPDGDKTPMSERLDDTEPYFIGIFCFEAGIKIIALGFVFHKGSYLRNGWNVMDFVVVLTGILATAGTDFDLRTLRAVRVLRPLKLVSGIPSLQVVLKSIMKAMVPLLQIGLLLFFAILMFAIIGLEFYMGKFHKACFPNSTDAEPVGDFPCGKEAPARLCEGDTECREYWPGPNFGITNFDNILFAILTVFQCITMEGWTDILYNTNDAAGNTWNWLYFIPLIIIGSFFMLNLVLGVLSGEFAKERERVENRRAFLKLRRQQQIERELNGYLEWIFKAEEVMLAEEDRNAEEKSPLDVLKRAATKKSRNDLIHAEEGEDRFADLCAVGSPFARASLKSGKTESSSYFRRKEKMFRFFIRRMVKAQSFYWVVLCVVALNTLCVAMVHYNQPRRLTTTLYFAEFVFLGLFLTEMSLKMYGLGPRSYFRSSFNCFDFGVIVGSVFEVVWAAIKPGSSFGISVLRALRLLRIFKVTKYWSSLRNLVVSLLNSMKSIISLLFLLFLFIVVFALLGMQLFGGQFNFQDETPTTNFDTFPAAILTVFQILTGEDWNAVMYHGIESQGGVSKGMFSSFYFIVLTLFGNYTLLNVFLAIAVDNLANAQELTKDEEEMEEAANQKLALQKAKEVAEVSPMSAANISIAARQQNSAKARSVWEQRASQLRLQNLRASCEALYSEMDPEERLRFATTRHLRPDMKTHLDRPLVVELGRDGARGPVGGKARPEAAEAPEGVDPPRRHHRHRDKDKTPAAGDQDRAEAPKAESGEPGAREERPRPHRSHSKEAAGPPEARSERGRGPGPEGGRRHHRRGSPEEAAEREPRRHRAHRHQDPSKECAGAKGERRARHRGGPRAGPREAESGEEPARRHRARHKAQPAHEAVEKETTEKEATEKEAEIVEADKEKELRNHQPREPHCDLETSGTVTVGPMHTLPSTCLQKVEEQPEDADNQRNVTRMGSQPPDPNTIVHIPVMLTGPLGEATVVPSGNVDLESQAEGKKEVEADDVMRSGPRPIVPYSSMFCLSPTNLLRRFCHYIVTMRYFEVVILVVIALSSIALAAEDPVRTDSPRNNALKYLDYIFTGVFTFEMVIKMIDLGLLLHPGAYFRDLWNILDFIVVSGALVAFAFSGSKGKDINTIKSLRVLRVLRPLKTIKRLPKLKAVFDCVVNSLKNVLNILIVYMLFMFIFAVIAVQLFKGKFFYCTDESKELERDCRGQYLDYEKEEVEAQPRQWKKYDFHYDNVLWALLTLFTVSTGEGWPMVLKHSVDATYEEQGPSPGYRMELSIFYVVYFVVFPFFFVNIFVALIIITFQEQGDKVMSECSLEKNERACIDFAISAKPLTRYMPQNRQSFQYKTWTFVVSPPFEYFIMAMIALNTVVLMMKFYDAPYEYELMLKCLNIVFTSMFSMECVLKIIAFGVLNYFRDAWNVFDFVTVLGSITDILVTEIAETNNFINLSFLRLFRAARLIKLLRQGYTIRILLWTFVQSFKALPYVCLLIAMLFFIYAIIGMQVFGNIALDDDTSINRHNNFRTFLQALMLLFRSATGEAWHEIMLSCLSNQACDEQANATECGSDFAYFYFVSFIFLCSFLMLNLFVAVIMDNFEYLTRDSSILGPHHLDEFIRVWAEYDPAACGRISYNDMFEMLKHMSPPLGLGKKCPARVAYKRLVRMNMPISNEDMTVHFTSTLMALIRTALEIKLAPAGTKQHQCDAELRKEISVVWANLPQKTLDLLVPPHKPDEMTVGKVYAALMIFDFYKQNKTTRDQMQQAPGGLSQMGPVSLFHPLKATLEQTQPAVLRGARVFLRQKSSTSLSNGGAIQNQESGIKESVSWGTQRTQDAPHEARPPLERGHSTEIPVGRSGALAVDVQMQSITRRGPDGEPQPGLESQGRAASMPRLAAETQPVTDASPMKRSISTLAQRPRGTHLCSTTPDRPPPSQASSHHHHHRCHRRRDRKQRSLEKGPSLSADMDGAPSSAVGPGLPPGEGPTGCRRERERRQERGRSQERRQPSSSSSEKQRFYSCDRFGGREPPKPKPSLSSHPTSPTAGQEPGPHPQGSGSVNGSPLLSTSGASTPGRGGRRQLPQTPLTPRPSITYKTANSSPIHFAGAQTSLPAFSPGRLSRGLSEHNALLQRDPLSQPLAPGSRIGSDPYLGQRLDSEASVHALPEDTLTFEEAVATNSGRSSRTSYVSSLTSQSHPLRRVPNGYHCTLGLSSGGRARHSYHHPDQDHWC
Sequence (P54289 25-956 partner limits assumed): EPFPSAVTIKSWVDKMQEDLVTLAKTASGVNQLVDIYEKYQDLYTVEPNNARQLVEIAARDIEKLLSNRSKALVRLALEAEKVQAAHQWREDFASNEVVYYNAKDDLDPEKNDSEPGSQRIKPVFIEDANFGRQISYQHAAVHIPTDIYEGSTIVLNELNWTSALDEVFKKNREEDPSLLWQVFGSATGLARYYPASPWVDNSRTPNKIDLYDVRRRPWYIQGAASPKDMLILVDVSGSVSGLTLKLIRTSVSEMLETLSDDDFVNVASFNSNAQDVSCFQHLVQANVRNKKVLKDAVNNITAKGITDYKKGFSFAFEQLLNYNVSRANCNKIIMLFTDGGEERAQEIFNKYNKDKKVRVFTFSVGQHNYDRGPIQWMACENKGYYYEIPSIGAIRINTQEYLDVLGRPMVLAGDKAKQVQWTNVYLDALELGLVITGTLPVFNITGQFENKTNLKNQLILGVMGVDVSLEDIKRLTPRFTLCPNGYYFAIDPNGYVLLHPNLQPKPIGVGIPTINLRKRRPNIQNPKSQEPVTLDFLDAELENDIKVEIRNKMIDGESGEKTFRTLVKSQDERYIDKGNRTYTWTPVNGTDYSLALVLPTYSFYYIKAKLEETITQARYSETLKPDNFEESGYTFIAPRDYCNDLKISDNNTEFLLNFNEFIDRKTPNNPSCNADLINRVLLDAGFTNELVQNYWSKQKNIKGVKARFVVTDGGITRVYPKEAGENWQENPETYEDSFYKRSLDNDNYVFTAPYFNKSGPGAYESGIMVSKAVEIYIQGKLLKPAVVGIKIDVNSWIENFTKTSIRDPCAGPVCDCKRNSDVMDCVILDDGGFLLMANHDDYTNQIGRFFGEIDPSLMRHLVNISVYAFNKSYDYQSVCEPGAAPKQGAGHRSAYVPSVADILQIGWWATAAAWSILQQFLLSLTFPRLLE
Sequence (P54289 957-1103 partner limits assumed): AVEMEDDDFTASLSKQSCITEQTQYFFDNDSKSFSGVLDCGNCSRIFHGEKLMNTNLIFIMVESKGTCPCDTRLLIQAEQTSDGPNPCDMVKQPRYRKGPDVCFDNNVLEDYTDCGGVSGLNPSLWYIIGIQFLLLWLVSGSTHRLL
Sequence (Q02641 whole entry partner): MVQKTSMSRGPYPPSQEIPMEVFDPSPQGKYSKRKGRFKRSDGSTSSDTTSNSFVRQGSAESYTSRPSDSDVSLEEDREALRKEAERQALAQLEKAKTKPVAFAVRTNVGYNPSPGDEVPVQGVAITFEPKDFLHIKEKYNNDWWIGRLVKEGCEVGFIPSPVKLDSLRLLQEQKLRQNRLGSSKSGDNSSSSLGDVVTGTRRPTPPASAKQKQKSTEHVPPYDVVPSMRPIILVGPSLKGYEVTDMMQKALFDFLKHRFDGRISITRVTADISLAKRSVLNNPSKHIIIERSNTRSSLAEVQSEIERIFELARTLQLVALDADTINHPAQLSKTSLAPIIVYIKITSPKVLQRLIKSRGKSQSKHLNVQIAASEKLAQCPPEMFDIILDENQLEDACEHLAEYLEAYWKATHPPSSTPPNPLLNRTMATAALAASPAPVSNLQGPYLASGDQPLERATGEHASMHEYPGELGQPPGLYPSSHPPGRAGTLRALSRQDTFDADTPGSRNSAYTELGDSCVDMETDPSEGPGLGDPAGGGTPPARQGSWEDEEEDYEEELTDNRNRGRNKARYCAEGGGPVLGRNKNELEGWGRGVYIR
assayName: N-type Ca2+ channel blocking potency in IMR-32 cells using Indo-1
Assay type: cell-based
testParameters: IMR-32, IMR-32 cells; at 1 μM; read-out: IMR32 % blockage at 1 μM
Structures can show the parent of a compound that is named as a salt.
assayEndpoint: inhibition at 1 µM (%)
The reply should contain only the number, in %.

*Q* Write down the reported inhibition at 1 µM (system: N-type calcium channels in IMR-32 cells (Homo sapiens, UniProt Q00975)) of CC(C)CCN(CCC(C)C)[C@@H](Cc1ccccc1)C(=O)N1CCN(C(c2ccc(F)cc2)c2ccc(F)cc2)CC1.Cl [Example 56, dihydrochloride]
*A* 16

*Q* Write down the reported inhibition at 1 µM (system: N-type calcium channels in IMR-32 cells (Homo sapiens, UniProt Q00975)) of C[C@H](NC(=O)N1CCCCCC1)C(=O)NCCCC(c1ccc(F)cc1)c1ccc(F)cc1
*A* 39

*Q* Write down the reported inhibition at 1 µM (system: N-type calcium channels in IMR-32 cells (Homo sapiens, UniProt Q00975)) of CC(C)N[C@@H](Cc1ccccc1)C(=O)N1CCN(C(c2ccc(F)cc2)c2ccc(F)cc2)CC1
*A* 25

*Q* Write down the reported inhibition at 1 µM (system: N-type calcium channels in IMR-32 cells (Homo sapiens, UniProt Q00975)) of COc1cc(CN[C@@H](CC(C)C)C(=O)N2CCN(C(c3ccc(F)cc3)c3ccc(F)cc3)CC2)cc(OC)c1OC
*A* 26

*Q* Write down the reported inhibition at 1 µM (system: N-type calcium channels in IMR-32 cells (Homo sapiens, UniProt Q00975)) of N[C@@H](Cc1ccccc1)C(=O)N1CCN(C(c2ccc(F)cc2)c2ccc(F)cc2)CC1
*A* 23

*Q* Write down the reported inhibition at 1 µM (system: N-type calcium channels in IMR-32 cells (Homo sapiens, UniProt Q00975)) of CC(C)C[C@@H](C(=O)NCCCC(c1ccc(F)cc1)c1ccc(F)cc1)N(C)C [Example 20, monohydrochloride]
*A* 25

*Q* Write down the reported inhibition at 1 µM (system: N-type calcium channels in IMR-32 cells (Homo sapiens, UniProt Q00975)) of CC(C)C[C@@H](C(=O)NCCCC(c1ccc(F)cc1)c1ccc(F)cc1)N1CCOCC1 [Example 23, monohydrochloride]
*A* 35

---

I'd appreciate it if you could supply melting point values for the items below.
Counter-ions that a name gives are not always drawn.

*Q* Provide only the value of recorded melting point for CC(C)C[C@H](NC(=O)OC(C)(C)C)C(=O)N1CCN(C(c2ccc(F)cc2)c2ccc(F)cc2)CC1
*A* 59 to 66 °C

*Q* Provide only the value of recorded melting point for CC(C)C[C@H](NC(C)C)C(=O)N1CCN(C(c2ccc(F)cc2)c2ccc(F)cc2)CC1 (as salt: hydrochloride) [Example 49, monohydrochloride]
*A* 100 to 103 °C

*Q* Provide only the value of recorded melting point for O=C(CNC(=O)N1CCCCCC1)N1CCN(C(c2ccc(F)cc2)c2ccc(F)cc2)CC1
*A* 66 to 86 °C

*Q* Provide only the value of recorded melting point for CCC(C)[C@H](NC(=O)N1CCCCCC1)C(=O)N1CCN(C(c2ccc(F)cc2)c2ccc(F)cc2)CC1 (some centres unmarked)
*A* 64 to 77 °C

*Q* Provide only the value of recorded melting point for CCC(C)N[C@H](C(=O)NCCCC(c1ccc(F)cc1)c1ccc(F)cc1)C(C)C (some centres unmarked) (as salt: hydrochloride)
*A* 77 to 81 °C

*Q* Provide only the value of recorded melting point for CC(C)C[C@H](NCc1ccc(OC(C)(C)C)cc1)C(=O)N1CCN(C(c2ccc(F)cc2)c2ccc(F)cc2)CC1
*A* 56 to 61 °C

*Q* Provide only the value of recorded melting point for CN[C@H](C(=O)NCCCC(c1ccc(F)cc1)c1ccc(F)cc1)C(C)C (as salt: hydrochloride) [Example 73, monohydrochloride]
*A* 85 to 90 °C

*Q* Provide only the value of recorded melting point for CC(C)CC(NC(=O)N1CCN(C)CC1)C(=O)N1CCN(C(c2ccc(F)cc2)c2ccc(F)cc2)CC1 (stereo in doubt)
*A* 65 to 78 °C

*Q* Provide only the value of recorded melting point for C[C@H](NC(=O)N1CCCCCC1)C(=O)NCCCC(c1ccc(F)cc1)c1ccc(F)cc1
*A* 29 to 49 °C

*Q* Provide only the value of recorded melting point for O=C([C@H](Cc1ccccc1)NC1CCCCC1)N1CCN(C(c2ccc(F)cc2)c2ccc(F)cc2)CC1
*A* 60 to 64 °C

*Q* Provide only the value of recorded melting point for CC(C)[C@H](NC1CCCCC1)C(=O)NCCCC(c1ccc(F)cc1)c1ccc(F)cc1 (as salt: hydrochloride)
*A* 49 to 53 °C

*Q* Provide only the value of recorded melting point for CC(C)C[C@H](NC(=O)OC(C)(C)C)C(=O)NCCCC(c1ccc(F)cc1)c1ccc(F)cc1
*A* 50 to 55 °C

*Q* Provide only the value of recorded melting point for CC(C)C[C@@H](C(=O)NCCC(c1ccccc1)c1ccccc1)N1CCCCC1.Cl
*A* 58 to 65 °C

*Q* Provide only the value of recorded melting point for CC(C)C[C@@H](C(=O)NCCCC(c1ccc(F)cc1)c1ccc(F)cc1)N(C)C(C)C (as salt: hydrochloride)
*A* 155 to 156 °C
